Quick list: MIC per entry.
tested on: E. coli M 49
measured quantity: MIC

molecule | test result
O=C(NOC[C@@H]1CCCN1)[C@@H]1CC[C@@H]2CN1C(=O)N2OC(F)(F)C(=O)O [Example 1] | 8 µg/mL
NCCONC(=O)[C@@H]1CC[C@@H]2CN1C(=O)N2OC(F)(F)C(=O)O [Example 8] | 4 µg/mL
O=C(NOC[C@H]1CCCCN1)[C@@H]1CC[C@@H]2CN1C(=O)N2OC(F)(F)C(=O)O [Example 4] | 4 µg/mL
